Method notes: MTT cell viability assay in hCMEC/D3 cells
Format: cell-based, human
Run parameters: human, hCMEC/D3 cells; read-out: decrease of cell viability (MTT)
Property label: cytotoxicity at 48 h, 15 μM (%)
Numeric only. Scale: %

// sample C=C(C)[C@@H]1CCC(C)=C[C@H]1c1c(O)cc(CCCCC)cc1O [CBD, cannabidiol] , its cytotoxicity at 48 h, 15 μM was 77

---

Method notes: MTT cell viability assay in hCMEC/D3 cells
Type: cell-based, human
Run parameters: human, hCMEC/D3 cells; read-out: decrease of cell viability (MTT)
Property label: cytotoxicity at 72 h, 15 μM (%)
Numbers only; they are read as %.

C=C(C)[C@@H]1CCC(C)=C[C@H]1c1c(O)cc(CCCCC)cc1O [CBD, cannabidiol] has a reported cytotoxicity at 72 h, 15 μM of 78
